System: Hepatoma 130 tumor
SETUP_CONDITIONS: in vivo, ip
For each of the compounds below, state its ED50 (Effect).
Write down the numeric answer in mg/kg and omit the unit.

Which ED50 (Effect) is reported for this compound? "C[C@]12CCC(=O)C=C1CC[C@@H]1[C@@H]2[C@@H](O)C[C@@]2(C)[C@H]1CC[C@]2(O)C(=O)COC(=O)c1ccc(N(CCCl)CCCl)cc1"
28

Which ED50 (Effect) is reported for this compound? O=C(O)CCCc1ccc(N(CCCl)CCCl)cc1 [Chlorambucil, reference compound]
4.3

Which ED50 (Effect) is reported for this compound? "C[C@]12C=CC(=O)C=C1CC[C@@H]1[C@@H]2C(=O)C[C@@]2(C)[C@H]1CC[C@]2(O)C(=O)COC(=O)c1ccc(N(CCCl)CCCl)cc1"
58

Which ED50 (Effect) is reported for this compound? "C[C@]12C=CC(=O)C=C1CC[C@@H]1[C@@H]2[C@@H](O)C[C@@]2(C)[C@H]1CC[C@]2(O)C(=O)COC(=O)c1ccc(N(CCCl)CCCl)cc1"
5.6

Which ED50 (Effect) is reported for this compound? "C[C@]12C=CC(=O)C=C1CC[C@@H]1[C@@H]2[C@@H](O)C[C@@]2(C)[C@H]1CC[C@]2(O)C(=O)COC(=O)Cc1ccc(N(CCCl)CCCl)cc1"
27

###

For each of the compounds below, state its LD50.
EXPERIMENT_DESCRIPTION: Harding-Passey Melanoma growth inhibition and lethality, oral (Table 5)
Assay type: in vivo
SETUP_CONDITIONS: in vivo, 11 × dose
Write down the numeric answer in mg/kg and omit the unit.

Which LD50 is reported for this compound? "C[C@]12C=CC(=O)C=C1CC[C@@H]1[C@@H]2[C@@H](O)C[C@@]2(C)[C@H]1CC[C@]2(O)C(=O)COC(=O)CCCc1ccc(N(CCCl)CCCl)cc1"
40

Which LD50 is reported for this compound? O=C(O)CCCc1ccc(N(CCCl)CCCl)cc1 [Chlorambucil, reference compound]
7

###

EXPERIMENT_DESCRIPTION: in vivo
SETUP_CONDITIONS: ip
MEASUREMENT_TYPE: LD50
Hi, when you answer, please include the unit after the number. Thanks!

Which LD50 is reported for this compound? O=C(O)CCCc1ccc(N(CCCl)CCCl)cc1 [Chlorambucil, reference compound]
30 mg/kg

Which LD50 is reported for this compound? "C[C@]12C=CC(=O)C=C1CC[C@@H]1[C@@H]2[C@@H](O)C[C@@]2(C)[C@H]1CC[C@]2(O)C(=O)COC(=O)Cc1ccc(N(CCCl)CCCl)cc1"
560 mg/kg

###

For each of the compounds below, state its LD50.
EXPERIMENT_DESCRIPTION: Hepatoma 130 tumor growth inhibition and lethality, oral (Table 5)
Assay type: in vivo
SETUP_CONDITIONS: in vivo, 1 × dose
Write down the numeric answer in mg/kg and omit the unit.

Which LD50 is reported for this compound? O=C(O)CCCc1ccc(N(CCCl)CCCl)cc1 [Chlorambucil, reference compound]
55

Which LD50 is reported for this compound? "C[C@]12C=CC(=O)C=C1CC[C@@H]1[C@@H]2[C@@H](O)C[C@@]2(C)[C@H]1CC[C@]2(O)C(=O)COC(=O)CCCc1ccc(N(CCCl)CCCl)cc1"
380

FYI, the data here is from patent US4029778A.
